B1: C20orf112 (parent)
chain: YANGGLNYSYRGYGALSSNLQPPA

variants of: B1; assay: protein stability index of a GFP-peptide fusion (GPS, HEK-293T) (PSI 1-6); higher = more stable; conditions: c terminus: a fixed tail appended;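 further: lentivirally expressed fusions sorted by FACS into six bins by GFP to DsRed ratio, PSI derived from sequencing read proportions per bin multiplied by bin number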
Measurement name: protein stability index

# Mut, Observed
records = [
    ("R11I", 1.98),
    ("N19I", 1.71),
    ("R11H", 1.69),
    ("N7A", 2.81),
    ("N7E", 2.52),
    ("S9K", 1.57),
    ("L6M", 2.3),
    ("N19H", 1.43),
    ("A15I", 2.42),
    ("S17C", 2.2),
    ("P23L", 1.54),
    ("A24N", 1.9),
    ("A24R", 2.48),
    ("Q21N", 1.64),
    ("Y1H", 2.64),
    ("G14T", 2.8),
    ("A2M", 1.68),
    ("Y1G", 3.16),
    ("L16R", 2.3),
    ("R11C", 3.49),
    ("R11S", 2.19),
    ("Y1T", 2.83),
]
